Values compiled from patent US9113629B2.

Test system: Key Grass and Sedge Weeds as well as Grass Crops
assay.remarks: Post-emergent Test II herbicidal activity (Table 6)
Format: in vivo
settings: post-emergence, 336 h, SETFA: giant foxtail (Setaria faberi), application rate 140 g ai/ha, read-out: Visual Growth Reduction (%) 14 Days After Application, SETFA
measurement.label: pest or weed control at 140 g/ha

Solved entries (count: 4):
smiles.record	measurement.label	data.value
C=Cc1c(C(=O)OC)nc(-c2ccc(Br)cc2)c(F)c1N	pest or weed control at 140 g/ha	0 to 29%
C=Cc1c(N)nc(-c2ccc(C(F)(F)F)c(F)c2)nc1C(=O)O	pest or weed control at 140 g/ha	0 to 29%
COC(=O)c1nc(-c2ccc(I)c(F)c2)nc(N)c1OC	pest or weed control at 140 g/ha	0 to 29%
COC(=O)c1nc(-c2cc(F)c(OC(F)F)cc2F)cc(N)c1Cl	pest or weed control at 140 g/ha	45 to 59%

For the next question, use this compound.
Q. Suppose we examine the compound COC(=O)c1nc(-c2cc(F)c(I)cc2F)cc(N)c1Cl ; what pest or weed control at 140 g/ha value has been reported?
A. 95 to 100%

* * *

System: KCHSC: kochia (Kochia scoparia)
assay.remarks: Post-emergent Test III, herbicidal activity in wheat and barley
Format: in vivo
settings: probit analysis; dose for 50 percent growth reduction; 21 days after application
Attribute: GR50 KCHSC
Numbers only; they are read as g ai/ha.

Take a look at these entries with their results.
smiles.record	data.value
COc1c(N)nc(-c2ccc(I)c(F)c2F)nc1C(=O)O	12
COC(=O)c1nc(-c2ccc(Br)cc2F)c(F)c(N)c1Cl	5
Nc1cc(-c2ccc(I)c(F)c2F)nc(C(=O)O)c1Cl	1
Nc1c(F)c(-c2ccc(Br)c(F)c2)nc(C(=O)O)c1Cl	1

Q. Bench note: what GR50 KCHSC did Nc1c(F)c(-c2ccc(Br)cc2F)nc(C(=O)O)c1Cl show?
A. 8

Q. Requested field: GR50 KCHSC. Item: C=Cc1c(C(=O)O)nc(-c2ccc(C(F)(F)F)c(F)c2)c(F)c1N
A. 12

Q. Requested read-out: GR50 KCHSC. Entry: COC(=O)c1nc(-c2ccc(I)c(F)c2F)c(F)c(N)c1Cl
A. 9

* * *

Test system: Key Grass and Sedge Weeds as well as Grass Crops
assay.remarks: Post-emergent Test II herbicidal activity (Table 6)
Type: in vivo
settings: post-emergence, 336 h, DIGSA: crabgrass (Digitaria sanguinalis), application rate 140 g ai/ha, read-out: Visual Growth Reduction (%) 14 Days After Application, DIGSA
From the text: Post-emergent Test II: Seeds or nutlets of the desired test plant species were planted in Sun Gro Metro-Mix® 360 planting mixture, which typically has a pH of 6.0 to 6.8 and an organic matter content of about 30 percent, in plastic pots with a surface area of 64 square centimeters. When required to ensure good germination and healthy plants, a fungicide treatment and/or other chemical or physical treatment was applied. […]
We begin with a simple list: items and their reported pest or weed control at 140 g/ha.

compound	data.value
COC(=O)c1nc(-c2ccc(Br)c(F)c2)c(C)c(N)c1Cl [Compound 112]	60 to 74%
Nc1cc(-c2cc(F)c(OC(F)F)cc2F)nc(C(=O)O)c1Cl [Compound 187]	0 to 29%
C=Cc1c(N)nc(-c2ccc(C(F)(F)F)c(F)c2)nc1C(=O)O [Compound 32]	0 to 29%
C=Cc1c(C(=O)OC)nc(-c2ccc(C(F)(F)F)c(F)c2)c(F)c1N [Compound 12]	0 to 29%
COC(=O)c1nc(-c2ccc(OC(F)(F)F)cc2)c(Cl)c(N)c1Cl [Compound 170]	0 to 29%

Q. Which pest or weed control at 140 g/ha is listed for COC(=O)c1nc(-c2ccc(Br)c(F)c2)cc(N)c1Cl [Compound 115] ?
A. 85 to 94%

Q. Please give the measured pest or weed control at 140 g/ha for this compound: COc1c(N)nc(-c2ccc(I)c(F)c2)nc1C(=O)O [Compound 37]
A. 60 to 74%

Q. What does the data say about its pest or weed control at 140 g/ha? Entry: Nc1cc(-c2ccc(Br)c(F)c2)nc(C(=O)O)c1Cl [Compound 110]
A. 75 to 84%

Q. Any idea what pest or weed control at 140 g/ha was measured for COC(=O)c1nc(-c2ccc(I)cc2)c(Cl)c(N)c1Cl [Compound 96] ?
A. 75 to 84%
